# Target entity: T1, human GPC3 (human, UniProt P51654 25-563)
# T1 construct: range 25-563; soluble analyte; also called soluble human GPC3; glypican 3
# T1 sequence (P51654 25-563 limits assumed): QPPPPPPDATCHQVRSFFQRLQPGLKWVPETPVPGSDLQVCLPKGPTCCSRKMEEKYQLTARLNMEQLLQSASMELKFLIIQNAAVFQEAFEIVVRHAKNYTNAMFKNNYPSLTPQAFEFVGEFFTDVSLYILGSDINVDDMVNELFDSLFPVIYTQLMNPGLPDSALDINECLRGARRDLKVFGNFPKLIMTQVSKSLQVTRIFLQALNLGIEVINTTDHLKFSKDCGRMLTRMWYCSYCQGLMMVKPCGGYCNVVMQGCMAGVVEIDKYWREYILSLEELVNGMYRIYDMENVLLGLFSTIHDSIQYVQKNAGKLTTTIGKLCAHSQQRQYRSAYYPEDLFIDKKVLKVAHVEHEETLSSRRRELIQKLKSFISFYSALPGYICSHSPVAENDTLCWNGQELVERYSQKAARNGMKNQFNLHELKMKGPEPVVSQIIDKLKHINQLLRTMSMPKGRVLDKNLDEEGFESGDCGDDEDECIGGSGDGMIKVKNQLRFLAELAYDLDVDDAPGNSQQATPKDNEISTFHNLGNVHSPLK
# Assay explanation: SPR
# reported pKd; entries follow
Expect pKd as a plain number equal to -log10 of the molar concentration.

H0610-G1dh/none-Hi-Kn010G3/L0134-k0 (antibody, V domains shown, one-arm) VH: QVQLVQSGAEVKKPGASVKVSCKASGYTFTDYEMHWIRQPPGQGLEWIGAIDGKTPDTAYSQKFKGRVTLTADKSTSTAYMELSSLTSEDTAVYYCTRFYSYTYWGQGTLVTVSS VL: DIVMTQSPLSLPVTPGEPASISCRSSQSLVHSNRNTYLHWYQQKPGQAPRLLIYKVSNRYSGVPDRFSGSGSGTDFTLKISRVEAEDVGVYYCGQGTQVPYTFGQGTKLEIK ... 8.60

Let us move to another entry and its pKd.
Returns the measured pKd for the input binder. Input: H0610-G1dh/none-Hi-Kn010G3/L0266-k0 (antibody, V domains shown, one-arm) VH: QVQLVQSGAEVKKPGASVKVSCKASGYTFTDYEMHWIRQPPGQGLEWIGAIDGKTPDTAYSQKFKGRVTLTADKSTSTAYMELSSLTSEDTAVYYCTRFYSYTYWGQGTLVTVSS VL: DIVMTQSPLSLPVTPGEPASISCRSSQPPVHSNRNTYLHWYQQKPGQAPRLLIYKVSNRFSGVPDRFSGSGSGTDFTLKISRVEAEDVGVYYCVQGTQVPYTFGQGTKLEIK
9.67
